test system: PANC-1; test: Cell cycle arrest in human PANC1 cells assessed as increase in accumulation at G2/M phase at 10 uM after 18 hrs by Hoechst 33342 staining based FACS analysis relative to control; assay type: functional
Below: a set of entries, each annotated with reported Activity.
recorded metric: Activity

compound="CCNC(=O)N1CCc2c(Br)c3c(c(OC)c2C1Cc1ccccc1)OCO3 (stereo unspecified)" observed_measurement=-8%
compound="COc1ccc(C2c3c(c(Br)c4c(c3OC)OCO4)CCN2C)cc1 (stereo unspecified)" observed_measurement=26%
compound="COc1cc(CC2c3c(c(Br)c4c(c3OC)OCO4)CCN2C)cc(OC)c1OC (stereo unspecified)" observed_measurement=-1%
compound="COc1c2c(c(Br)c3c1C(c1ccccc1)N(C)CC3)OCO2 (stereo unspecified)" observed_measurement=-7%
compound="COc1c2c(c(Br)c3c1C(Cc1ccccc1)N(C)CC3)OCO2 (stereo unspecified)" observed_measurement=13%
compound="COc1cccc(C2c3c(c(Br)c4c(c3OC)OCO4)CCN2C)c1OC (stereo unspecified)" observed_measurement=16%

Data credit: ChEMBL document CHEMBL4196179
